Calcium Rmax values by entry
Biological target: hFPR1 (Homo sapiens, UniProt P21462)
Construct: expressed in transfected cells
Experiment: [Ca2+]i mobilization in FlpIn-CHO cells stably expressing hFPR1
Format: cell-based
Design: unit not given here
Details: Table 10; receptor not given; ND = Not detectable
Method: cDNDA construct and generation of stable cell lines: cDNA in pcDNA3.1^+ encoding the human formyl peptide receptors (FPR) subtypes, hFPR1, hFPR2 and hFPR3 was obtained from Invitrogen. […] Intracellular calcium mobilization: Intracellular calcium mobilization was assayed as described previously (Keov, P et al., 2014). […] Cells were then further washed and placed in HBS/BSA/probenecid solution for ligation addition and assay using the FLEXstation 3 plate reader (Molecular Devices, Sunnyvale, Calif.). […]
A bare number is all that is needed in reply.

Solved entries (count: 2):
Report measured Calcium Rmax; entry is COc1ccc(OC)c(Cc2cc(C)nn(CC(=O)Nc3ccc(Cl)cc3)c2=O)c1
19

Determine its reported Calcium Rmax: Cc1cc(Cc2ccccc2F)c(=O)n(C(C)C(=O)Nc2ccc(Br)cc2)n1 (stereo not drawn)
8

More entries:
Tell me Calcium Rmax reported for COc1ccc(NC(=O)Cn2nc(C)cc(Cc3c(OC)cccc3OC)c2=O)cc1
48

Provide one value: measured Calcium Rmax of COc1cccc(Cc2cc(C)nn(C(C)C(=O)Nc3ccc(Cl)cc3)c2=O)c1 (stereo not drawn)
20

Look up Calcium Rmax of Cc1cc(Cc2ccccn2)c(=O)n(CC(=O)Nc2ccc(Cl)cc2)n1 [MIPS-0010397] and report it.
18

Supply recorded Calcium Rmax for COc1cccc(Cc2cc(C)nn(CC(=O)Nc3ccc(Cl)cc3)c2=O)n1 here.
11

---

Target: hFPR1 (Homo sapiens, UniProt P21462)
Construct: expressed in transfected cells
Sequence (P21462 1-350): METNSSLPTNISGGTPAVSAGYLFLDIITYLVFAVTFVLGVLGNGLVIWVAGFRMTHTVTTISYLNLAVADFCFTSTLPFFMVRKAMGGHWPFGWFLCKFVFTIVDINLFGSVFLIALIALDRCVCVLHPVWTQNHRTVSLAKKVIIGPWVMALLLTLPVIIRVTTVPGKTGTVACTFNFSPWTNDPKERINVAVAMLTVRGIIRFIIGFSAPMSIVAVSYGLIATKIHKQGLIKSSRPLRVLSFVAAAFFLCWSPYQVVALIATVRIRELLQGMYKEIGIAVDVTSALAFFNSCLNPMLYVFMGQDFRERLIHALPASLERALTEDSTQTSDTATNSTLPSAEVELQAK
Assay: ERK1/2 phosphorylation (AlphaScreen SureFire) in hFPR1-FlpIn-CHO cells
Format: cell-based
Conditions: Table 10; receptor not given
# ERK Rmax annotations
# print the numeric value only

Consider the reported ERK Rmax for these compounds:
Annotate the compound COc1ccc(Cc2cc(C)nn(C(C)C(=O)Nc3ccc(Br)cc3)c2=O)cc1 (centres unmarked) with its measured ERK Rmax.
81

Recall and state the measured ERK Rmax for Cc1cc(Cc2ccccc2F)c(=O)n(C(C)C(=O)Nc2ccc(Br)cc2)n1 (centres unmarked) .
91

Output ERK Rmax of COc1cccc(Cc2cc(C)nn(C(C)C(=O)Nc3cccc(F)c3)c2=O)c1 (centres unmarked)
50

Further cases:
// fetch ERK Rmax given entry Cc1cc(Cc2ccc(F)cc2)c(=O)n(C(C)C(=O)Nc2ccc(Br)cc2)n1 (centres unmarked)
89

Recall and state the measured ERK Rmax for Cc1cc(Cc2cccc(F)c2)c(=O)n(C(C)C(=O)Nc2ccc(Br)cc2)n1 (centres unmarked) .
93

---

Biological target: hFPR1 (Homo sapiens)
Construct: expressed in transfected cells
Sequence (P21462 1-350): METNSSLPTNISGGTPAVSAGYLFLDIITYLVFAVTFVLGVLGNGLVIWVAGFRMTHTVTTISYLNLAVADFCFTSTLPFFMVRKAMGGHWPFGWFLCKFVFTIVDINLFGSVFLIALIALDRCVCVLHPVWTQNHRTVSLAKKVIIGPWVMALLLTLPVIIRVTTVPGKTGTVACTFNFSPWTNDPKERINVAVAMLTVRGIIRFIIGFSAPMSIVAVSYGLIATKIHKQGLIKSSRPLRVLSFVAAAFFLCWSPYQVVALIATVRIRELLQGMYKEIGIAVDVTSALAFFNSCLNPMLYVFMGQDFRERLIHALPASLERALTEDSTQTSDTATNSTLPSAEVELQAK
Assay: [Ca2+]i mobilization in FlpIn-CHO cells stably expressing hFPR1
Type: cell-based
Parameters: unit not given here
Settings: Table 10; receptor not given; ND = Not detectable
Lab note: compare Calcium Rmax with 30, writing Condition met if less and Condition not met if equal or more.

Reference set, count: 5
A record lists Cc1cc(Cc2ccccn2)c(=O)n(CC(=O)Nc2ccc(Cl)cc2)n1 [MIPS-0014057] . Is its Calcium Rmax below 30?
Condition not met

Hello, is Calcium Rmax of the following compound strictly smaller than 30? COc1ccc(NC(=O)Cn2nc(C)cc(Cc3ccccc3OC)c2=O)cc1
Condition met

Consider the compound Cc1cc(Cc2cccc(F)c2)c(=O)n(C(C)C(=O)Nc2ccc(Br)cc2)n1 (stereo not drawn) . Is its Calcium Rmax strictly less than 30?
Condition met

Determine whether this compound shows Calcium Rmax lower than 30 (ties excluded): COc1ccccc1Cc1cc(C)nn(C(C)C(=O)Nc2ccc(Br)cc2)c1=O (stereo not drawn)
Condition met

For COc1ccccc1Cc1cc(C)nn(CC(=O)Nc2ccc(C)cc2)c1=O , is the recorded Calcium Rmax below the cut-off of 30?
Condition not met

New cases:
Find out if reported Calcium Rmax for Cc1cc(Cc2ccc(F)cc2)c(=O)n(C(C)C(=O)Nc2ccc(Br)cc2)n1 (stereo not drawn) is less than 30
Condition met

Below 30 on Calcium Rmax? Entry Cc1cc(Cc2cccnc2)c(=O)n(CC(=O)Nc2ccc(Cl)cc2)n1
Condition met

Here's an entry: COc1cccc(Cc2cc(C)nn(Cc3ccc(Cl)cc3)c2=O)c1OC . Is its Calcium Rmax below 30?
Condition not met

Strictly below 30: is that where Calcium Rmax of COc1ccc(Cc2cc(C)nn(C(C)C(=O)Nc3ccc(Br)cc3)c2=O)cc1 (stereo not drawn) sits?
Condition met
